This collection of values is drawn from patent US9365576B2.

system_under_test: human MDM2 protein (amino acids 2-188) (Homo sapiens (Human), UniProt Q00987)
Sequence (Q00987 2-188): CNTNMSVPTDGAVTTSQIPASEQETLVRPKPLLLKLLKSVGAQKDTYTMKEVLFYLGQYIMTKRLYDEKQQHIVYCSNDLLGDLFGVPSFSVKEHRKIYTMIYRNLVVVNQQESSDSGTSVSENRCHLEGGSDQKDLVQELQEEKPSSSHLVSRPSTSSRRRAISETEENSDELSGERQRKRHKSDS
test_details: TR-FRET assay, p53-MDM2 Assay 2 (modified)
Format: binding
experimental_conditions: TR-FRET; 0.1 nM MDM2, 0.1 nM Europium labeled streptavidin, Tecan genios Pro reader; read-out: IC50 p53-MDM2 Assay 2
measured_quantity: pIC50
Keep in mind that pIC50 stands for -log10 of concentration in molar terms.

# input Which pIC50 value is on record for COc1nc(N(C)C)ncc1-c1cc2c(n1C(C)C)C(c1ccc(Cl)cc1)N(c1cc(Cl)ccc1C)C2=O (stereo not shown) ?
# output 9.65

# input Which pIC50 value is on record for CCOC(=O)Cc1cnc(OC)c(-c2cc3c(n2C(C)C)C(c2ccc(C#N)cc2)N(c2cccc(Cl)c2F)C3=O)c1 (stereo not shown) ?
# output 8.38

# input Which pIC50 value is on record for COc1ccc(C(=O)O)cc1-c1cc2c(n1C(C)C)[C@H](c1ccc(Cl)cc1)N(c1cc(Cl)ccc1C)C2=O ?
# output 10.10

# input Which pIC50 value is on record for CNC(=O)c1ccc(OC)c(-c2cc3c(n2C(C)C)C(c2ccc(Cl)cc2C)N(c2cc(Cl)c(=O)n(C)c2)C3=O)c1 (stereo not shown) ?
# output 9.73

# input Which pIC50 value is on record for COc1ncc(-c2cc3c(n2C(C)C)C(c2ccc(Cl)cc2)N(c2cc(Cl)ccc2C#N)C3=O)c(OC)n1 (stereo not shown) ?
# output 9.50

# input Which pIC50 value is on record for CNC(=O)N1CCC(N2C(=O)c3cc(-c4cnc(OC)nc4OC)n(C(C)C)c3C2c2ccc(Cl)cc2)CC1 (stereo not shown) ?
# output 8.57

# input Which pIC50 value is on record for COc1ncc(-c2cc3c(n2C(C)C)C(c2ccc(Cl)cc2C)N([C@H]2CC[C@H](O)CC2)C3=O)c(OC)n1 (stereo partly shown) ?
# output 7.52

* * *

system_under_test: human MDM2 protein (amino acids 2-188) (Homo sapiens (Human), UniProt Q00987)
test_details: TR-FRET assay, p53-MDM2 Assay 2 (modified)
Assay type: binding
experimental_conditions: TR-FRET; 0.1 nM MDM2, 0.1 nM Europium labeled streptavidin, Tecan genios Pro reader; read-out: IC50 p53-MDM2 Assay 2
Experimental: The inhibition of p53-MDM2 and p53-MDM4 interactions is measured by time resolved fluorescence energy transfer (TR-FRET). Fluorescence energy transfer (or Foerster resonance energy transfer) describes an energy transfer between donor and acceptor fluorescent molecules. […] The ratiometric FRET assay readout is calculated from the raw data of the two distinct fluorescence signals measured in time resolved mode (fluorescence 665 nm/fluorescence 620 nm×1000). […]
measured_quantity: IC50 (nM)
Please respond with the number in nM and leave the unit unwritten.

# input Give the reported IC50 for COc1nc(N)ncc1-c1cc2c(n1C(C)C)C(c1ccc(Cl)cc1)N(c1c[nH]c(=O)c(Cl)c1)C2=O (stereo not shown) [Example 138] (system: human MDM2 protein (amino acids 2-188) (Homo sapiens (Human), UniProt Q00987)).
# output 0.341

# input Give the reported IC50 for COc1ccc(-c2cc3c(n2C(C)C)C(c2ccc(Cl)cc2)N(c2cc(Cl)ccc2C)C3=O)c(OC)c1 (stereo not shown) [Example 38] (system: human MDM2 protein (amino acids 2-188) (Homo sapiens (Human), UniProt Q00987)).
# output 0.444

# input Give the reported IC50 for COc1cnc(CC#N)cc1-c1cc2c(n1C(C)C)C(c1ccc(C#N)cc1)N(c1cccc(Cl)c1F)C2=O (stereo not shown) [Example 87] (system: human MDM2 protein (amino acids 2-188) (Homo sapiens (Human), UniProt Q00987)).
# output 0.359

# input Give the reported IC50 for COc1ccc(CO)cc1-c1cc2c(n1C(C)C)C(c1ccc(Cl)cc1)N(c1cc(Cl)ccc1C)C2=O (stereo not shown) [Example 11] (system: human MDM2 protein (amino acids 2-188) (Homo sapiens (Human), UniProt Q00987)).
# output 0.113
